- Tested on: Fibroblast
- protocol-summary: Multiplex assay against human fibroblast
- Format: toxicity, cell-based
- condition-context: 48 h, 1 µM, compound concentration 1 uM, replicate 2
Rule: True for Population Membrane Permeable-Phenotype (%) not less than 4%, False for anything less.

Answered examples (3):
CC(=O)Nc1cccc2c1c(Sc1ccc(Cl)cc1)c(C)n2CC(=O)O :: True
CN1CCN(c2cc(-c3ccccc3)nc(N)n2)CC1 :: False
N#Cc1c(Oc2cccc(OS(=O)(=O)CCCC(F)(F)F)c2)cccc1C(F)(F)F :: True

Is Population Membrane Permeable-Phenotype (%) for `Cc1noc(-c2ccc(-c3ccc(CC(=O)O)cc3)cc2)c1NC(=O)O[C@H](C)c1ccccc1Cl` at or above 4%?
True

Textbook exercise: given the entry `NCCc1cn(S(=O)(=O)c2c(Cl)nc3sccn23)c2ccccc12.O=C(O)C(=O)O` , state whether its Population Membrane Permeable-Phenotype (%) is greater than or equal to 4%.
True

Can `CC(C)(C)c1cc(NC(=O)Nc2ccc(-c3cn4c(n3)sc3cc(OCCN5CCOCC5)ccc34)cc2)no1` be said to have Population Membrane Permeable-Phenotype (%) at or above 4%?
False

----------
Provide the recorded Total Cell Count for the entries that follow.
- Test system: HEK-293T
- protocol-summary: Multiplex assay against HEK293T
- Type: toxicity, cell-based
- condition-context: human, 12 h, 1 µM, compound concentration 1 uM, replicate 1
One number for each entry.

CCCCC(=O)N(Cc1ccc(-c2ccccc2-c2nnn[nH]2)cc1)[C@H](C(=O)O)C(C)C :: 469

// for each compound below, give its Total Cell Count
1. CCCCCC(O)/C=C/[C@H]1C(=O)CC(O)C1C/C=C\CCCC(=O)O (stereo not given in full)
2. CCc1cc2cc(NS(=O)(=O)c3ccc(C#N)cc3)ccc2n(CC)c1=O
3. N#Cc1cc(F)cc(-c2nc(-c3ccc(F)cn3)no2)c1
4. Cl.NCCc1ccc(O)c(O)c1 [DOPAMINE HYDROCHLORIDE]

[409, 411, 280, 324]

----------
Record form. Attribute: Total Cell Count. Fill in for each entry.
- Tested on: HEK-293T
- protocol-summary: Multiplex assay against HEK293T
- Format: toxicity, cell-based
- condition-context: human, 12 h, 1 µM, compound concentration 1 uM, replicate 1
Give bare numbers.

Examples with their reported Total Cell Count follow.
CCCOc1ccc2[nH]cc(C3=CCNCC3)c2n1.Cl :: 416
Cc1cccc(NC(=O)CN2CCC(c3ccccn3)CC2)c1.Cl.Cl :: 348
O=C1[C@H](Cc2ccc(O)cc2)N2C(=O)CCN(C(=O)NCc3ccccc3)[C@H]2CN1Cc1cccc2ccccc12 :: 374
Cc1cnc(-c2cc(N3CCN(C(=O)CCS(C)(=O)=O)CC3)ncc2Cl)c(C)c1 :: 276
NCCc1cn(S(=O)(=O)c2c(Cl)nc3sccn23)c2ccccc12.O=C(O)C(=O)O :: 446

Parameter requested: Total Cell Count. Apply to each item below.
1. Cc1noc(-c2ccc(-c3ccc(CC(=O)O)cc3)cc2)c1NC(=O)O[C@H](C)c1ccccc1Cl
2. CN(C)C(=O)Cn1cc(-c2ccc(-c3cncc4ccccc34)cc2)cn1
3. COC[C@@H](c1ccc(C(F)(F)F)cc1)N1CCN(C2(C)CCN(C(=O)c3c(C)ncnc3C)CC2)C[C@@H]1C.O=C(O)/C=C\C(=O)O [VICRIVIROC MALEATE]
4. CC(C)COc1ccc(CNC(=O)N(Cc2ccc(F)cc2)C2CCN(C)CC2)cc1
5. Br.CS(=O)(=O)Nc1c(O)ccc2c1CCCC2C1=NCCN1 (stereo not drawn)

[403, 411, 406, 430, 407]

I would be grateful if you could provide Total Cell Count for each of the following entries.
1. Cl.N=C(N)NC(=O)Cc1c(Cl)cccc1Cl [GUANFACINE HYDROCHLORIDE]
2. CC(/C=C1\SC(=S)N(CCCC(=O)Nc2ccc(C(=O)O)c(O)c2)C1=O)=C\c1ccccc1
3. C[C@H](N)COC(=O)[C@@H](CCCCN)NC(=O)Cc1c(-c2ccc3ccccc3c2)[nH]c2c1ccc1ccccc12
4. COc1ccccc1N1CCN(C[C@@H](C(=O)NC(C)(C)C)c2ccccc2)CC1.Cl.Cl

[384, 422, 458, 434]

Dear colleague, could you send me Total Cell Count for each of the items below? Thanks.
1. COc1cccc2c1c(NS(=O)(=O)c1ccc(Cl)s1)nn2Cc1cccc(CNC(=O)C(C)(C)O)c1
2. N#Cc1c(Oc2cccc(OS(=O)(=O)CCCC(F)(F)F)c2)cccc1C(F)(F)F
3. Cc1onc(-c2ccccc2Cl)c1C(=O)N(C)c1ccc(Cl)cc1
4. CC(C)(C)c1cc(NC(=O)Nc2ccc(-c3cn4c(n3)sc3cc(OCCN5CCOCC5)ccc34)cc2)no1

1: 469; 2: 490; 3: 375; 4: 377

// each listed compound needs a value for Total Cell Count
1. Cc1sc2c(c1C)C(c1ccc(Cl)cc1)=N[C@@H](CC(=O)NCCCCCCCCNC(=O)COc1cccc3c1C(=O)N(C1CCC(=O)NC1=O)C3=O)c1nnc(C)n1-2 (stereo partly drawn)
2. CC(C)c1noc(N2CCC(COc3ccc(-c4ccc(S(C)(=O)=O)cc4)nc3)CC2)n1

1. 175
2. 440

Please report Total Cell Count for every entry that follows.
1. CN[C@@H](C)C(=O)N[C@H](C(=O)N1CCC[C@H]1C(=O)Nc1snnc1-c1ccccc1)C1CCCCC1
2. O=C(CCCc1ccccc1)Nc1nc2ccccc2c(=O)s1
3. CCCCC1=NC2(CCCC2)C(=O)N1Cc1ccc(-c2ccccc2-c2nnn[nH]2)cc1
4. CC[C@@H](C)Nc1nc(C)nc2c(-c3ccc(OC)nc3C)c(C)nn12

1: 444; 2: 372; 3: 500; 4: 399

Your task in this section: give Total Cell Count for each listed record.
1. CN1CCN(c2cc(-c3ccccc3)nc(N)n2)CC1
2. Cc1c(CC(=O)O)c2cccnc2n1Cc1ccc(S(C)(=O)=O)cc1C(F)(F)F
3. CC(=O)Nc1cccc2c1c(Sc1ccc(Cl)cc1)c(C)n2CC(=O)O
4. O=C(NCCN1CCC(n2c(=O)[nH]c3cc(Cl)ccc32)CC1)c1ccc(F)cc1 [HALOPEMIDE]

[383, 471, 405, 334]
